Test system: A. baumannii clinical isolate NY H
Test: Antibiotic susceptibility profile
Type: cell-based, Acinetobacter baumannii
Set-up: key: Resistance; Intermediate; Susceptible
attribute.measured: Antibiotic susceptibility

INSERT INTO results (compound, result) VALUES
  ('CN(C)[C@@H]1C(O)=C(C(N)=O)C(=O)[C@@]2(O)C(O)=C3C(=O)c4c(O)cccc4[C@@](C)(O)[C@H]3C[C@@H]12 [TET, Tetracycline]', 'R'),
  ('COc1c(N2CCNC(C)C2)c(F)cc2c(=O)c(C(=O)O)cn(C3CC3)c12 (stereo not drawn) [GAT, Gatifloxacin]', 'R'),
  ('CCN1CCN(C(=O)N[C@@H](C(=O)N[C@@H]2C(=O)N3[C@@H]2SC(C)(C)[C@@H]3C(=O)O)c2ccccc2)C(=O)C1=O [PIP, Piperacillin]', 'R'),
  ('CN(C)c1ccc(O)c2c1C[C@H]1C[C@H]3[C@H](N(C)C)C(O)=C(C(N)=O)C(=O)[C@@]3(O)C(O)=C1C2=O [MIN, Minocycline]', 'S'),
  ('CO/N=C(\C(=O)N[C@@H]1C(=O)N2C(C(=O)O)=C(COC(C)=O)CS[C@H]12)c1csc(N)n1 [CTX, Cefotaxime]', 'R'),
  ('CO/N=C(\C(=O)N[C@@H]1C(=O)N2C(C(=O)O)=C(CSc3nc(=O)c(=O)[nH]n3C)CS[C@H]12)c1csc(N)n1 [CRO, Ceftriaxone]', 'R');

---

Test system: A. baumannii clinical isolate NY B
Assay: Antibiotic susceptibility profile
Format: cell-based, Acinetobacter baumannii
Design: key: Resistance; Intermediate; Susceptible
attribute.measured: Antibiotic susceptibility

INSERT INTO results (structure_string, attribute_measured, result) VALUES
  ('NCC[C@H](O)C(=O)N[C@@H]1C[C@H](N)[C@@H](O[C@H]2O[C@H](CN)[C@@H](O)[C@H](O)[C@H]2O)[C@H](O)[C@H]1O[C@H]1O[C@H](CO)[C@@H](O)[C@H](N)[C@H]1O', 'Antibiotic susceptibility', 'I'),
  ('CCN1CCN(C(=O)N[C@@H](C(=O)N[C@@H]2C(=O)N3[C@@H]2SC(C)(C)[C@@H]3C(=O)O)c2ccccc2)C(=O)C1=O', 'Antibiotic susceptibility', 'R'),
  ('C[C@@H](O)[C@H]1C(=O)N2C(C(=O)O)=C(SCCN=CN)C[C@H]12', 'Antibiotic susceptibility', 'R');

---

System: A. baumannii clinical isolate NY H
Test: Antibiotic susceptibility profile
Assay type: cell-based, Acinetobacter baumannii
Design: key: Resistance; Intermediate; Susceptible
attribute.measured: Antibiotic susceptibility

INSERT INTO measurements (compound, target_entity, result) VALUES
  ('CO/N=C(\C(=O)N[C@@H]1C(=O)N2C(C(=O)[O-])=C(C[N+]3(C)CCCC3)CS[C@H]12)c1csc(N)n1 [FEP, Cefepime]', 'A. baumannii clinical isolate NY H', 'R'),
  ('C[C@@H](O)[C@H]1C(=O)N2C(C(=O)O)=C(S[C@@H]3CN[C@H](C(=O)N(C)C)C3)[C@H](C)[C@H]12', 'A. baumannii clinical isolate NY H', 'R'),
  ('C[C@H]1c2cccc(O)c2C(=O)C2=C(O)[C@]3(O)C(=O)C(C(N)=O)=C(O)[C@@H](N(C)C)[C@@H]3[C@@H](O)[C@@H]21', 'A. baumannii clinical isolate NY H', 'S');
